Each recorded value in this set is attributed to PubChem BioAssay (NCI).

Tested on: KM12 colon
assay-method-text: NCI tumour cell line growth inhibition, 48 h
The reader will find reported TGI values listed item by item below.

Observe how each entry below is paired with its result.
COc1ccc(C(=O)O)c2c(=O)c3cccnc3[nH]c12 ... > 100 µM
NC(=O)C1Cc2cc3c(cc21)OCO3 (centres undefined) ... > 100 µM
O=c1nc(NC(c2ccccc2)(c2ccccc2)c2ccccc2)ccn1CCNCCn1ccc(NC(c2ccccc2)(c2ccccc2)c2ccccc2)nc1=O ... 11.9 µM
COc1ccc(/C=C(\C#N)n2nnc3ccccc32)cc1 ... > 21.7 µM

[ask] // TGI lookup, key: Cc1ccc(N(C(=O)Nc2ccc(F)c(Cl)c2)C2=NCC(C)S2)cc1 (centres undefined)
[reply] > 100 µM

###

The reader will find reported TGI values listed item by item below.
Test system: SNB-75 CNS
assay-method-text: NCI tumour cell line growth inhibition, 48 h
Where a SMILES comes first, the peptide text is derived from it. The star is where a group is joined. Ethyl(2-NMe3+) = C[N+](C)(C)CC*; Boc = CC(C)(C)OC(=O)*
// units = µM; emit number, no label

Observe how each entry below is paired with its result.
CCCCCCCCCCCCOC1C(C(COC2OC(C3COC(C)(C)O3)C3OC(C)(C)OC23)NC(=O)NS(=O)(=O)c2ccccc2)OC2OC(C)(C)OC21 (stereo unspecified) ... 31.6
COc1cccc2c1C(=O)c1c(O)c3c(c(O)c1C2=O)C[C@@](O)(C(=O)CO)C[C@@H]3O[C@H]1C[C@H](N)[C@@H](O)[C@H](C)O1 ... 0.634
CC(NC(=O)C(Cc1ccc(OCC[N+](C)(C)C)cc1)NC(=O)OC(C)(C)C)C(=O)NC(Cc1ccccc1)C(=O)NCC(N)=O (stereo unspecified) (Boc-Y(Ethyl(2-NMe3+))AFG-NH2; configuration not given here) ... 30.3
N#Cc1ccc(C(=O)/C=C/c2ccc(O)c(O)c2)cc1 ... 36.6
CCN(CC)CCn1c2ccccc2c(=O)c2c(O)ccc(O)c21 ... 49.5
Cc1c(F)c(N)c2c(=O)cc(-c3ccc(N)c(F)c3)oc2c1F ... 56.2

[ask] // TGI lookup, key: COc1cc(/C=N/NC(=O)c2cnn3c2NC(c2ccccc2)C3)ccc1Oc1ccccc1 (stereo unspecified)
[reply] 3.41

[ask] // TGI lookup, key: COc1cccc(N2C(=O)/C(=C\c3ccccc3)SC2c2cc(OC)c(OC)c(OC)c2)c1 (stereo unspecified)
[reply] 57.3

[ask] // TGI lookup, key: Cc1cc(=O)[nH]c2cc3c(c4c(n3Cc3ccc(Cl)cc3Cl)CC(C)(C)CC4=O)c(O)c12
[reply] 59.8

[ask] // TGI lookup, key: O=C(c1ccccc1)C(Br)C(Br)c1cccc([N+](=O)[O-])c1 (stereo unspecified)
[reply] 19.8

[ask] // TGI lookup, key: CCOC(=O)/C(=C\c1ccc(C#N)cc1)C(C)=O
[reply] 45.5

[ask] // TGI lookup, key: C=C1C(=O)O[C@H]2[C@H](OC(C)=O)[C@@H](C)CCC/C(C)=C/CC[C@@]3(C)O[C@@H]3C[C@@H]12
[reply] 21.2

[ask] // TGI lookup, key: CC1(c2cccc(Cl)c2)CC(c2cccc(Cl)c2)=C(C#N)C(=C(C#N)C#N)N1 (stereo unspecified)
[reply] 34.3

[ask] // TGI lookup, key: Cc1ccc(NC(=O)C(=O)CC(=O)c2c(C)n([O-])c3ccccc3[n+]2=O)cc1
[reply] 58

[ask] // TGI lookup, key: Cc1ccc(C)n1-c1ccccc1C1C=CN(C(=O)OC(C)(C)C)C=C1
[reply] 56.6
